# tested-on: Melanocortin receptor 3 (Mus musculus) (UniProt P33033)
# Sequence (P33033 whole entry): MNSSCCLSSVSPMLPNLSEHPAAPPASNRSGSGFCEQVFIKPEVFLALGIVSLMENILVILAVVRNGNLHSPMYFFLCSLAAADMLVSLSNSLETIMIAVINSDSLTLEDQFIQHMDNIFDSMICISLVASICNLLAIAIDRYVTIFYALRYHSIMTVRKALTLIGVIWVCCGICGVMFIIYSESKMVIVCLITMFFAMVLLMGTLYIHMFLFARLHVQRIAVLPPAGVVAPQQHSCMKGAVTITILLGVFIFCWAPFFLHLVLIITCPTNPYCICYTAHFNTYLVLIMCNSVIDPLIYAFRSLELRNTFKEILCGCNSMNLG
# assay-explanation: Agonist activity at mouse MC3R expressed in HEK293 cells by CRE/beta-galactosidase reporter gene assay relative to Ac-His-DPhe7-Arg-Trp-NH2 peptide
# Format: functional, cell-based
Assign fulfilled whenever fold change (FC) does not fall below 5; assign not fulfilled whenever it does.

Consider the worked cases shown below.
CC(=O)N[C@@H](Cc1cnc[nH]1)C(=O)N[C@H](Cc1ccc(O)cc1)C(=O)N[C@@H](CCCNC(=N)N)C(=O)N[C@@H](Cc1c[nH]c2ccccc12)C(N)=O
fulfilled
CC(=O)N[C@@H](Cc1cnc[nH]1)C(=O)N[C@H](Cc1ccc(F)cc1)C(=O)N[C@@H](CCCNC(=N)N)C(=O)N[C@@H](Cc1c[nH]c2ccccc12)C(N)=O
not fulfilled
CC(=O)N[C@@H](Cc1cnc[nH]1)C(=O)N[C@H](Cc1ccccc1)C(=O)N[C@@H](CCCNC(=N)N)C(=O)N[C@@H](Cc1c[nH]c2ccccc12)C(N)=O
not fulfilled

Ask: Please tell me: is the molecule `CC(=O)N[C@@H](Cc1cnc[nH]1)C(=O)N[C@H](Cc1ccc(N)cc1)C(=O)N[C@@H](CCCNC(=N)N)C(=O)N[C@@H](Cc1c[nH]c2ccccc12)C(N)=O` at or over 5 in terms of fold change (FC)?
Reply: fulfilled
